B1: TRIM15 (parent)
chain: LLARLRELEQQIWKERDEYITKVS

Variants of: B1
Assay: protein stability index of a GFP-peptide fusion (GPS, HEK-293T) (PSI 1-6); higher = more stable;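 further: lentivirally expressed fusions sorted by FACS into six bins by GFP to DsRed ratio, PSI derived from sequencing read proportions per bin multiplied by bin number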
Conditions: c terminus: a fixed tail appended
Let's look at some variants and their measured protein stability index.
observed property: protein stability index

INSERT INTO measurements (mutation_string, recorded_value) VALUES
  ('E15I', 1.42),
  ('L8H', 2.12),
  ('T21D', 1.32),
  ('A3M', 2.34),
  ('T21P', 2.59),
  ('E7I', 1.03),
  ('S24E', 1.38),
  ('I20C', 1.08),
  ('W13G', 2.31),
  ('E9T', 3.38),
  ('I12W', 1.43),
  ('V23N', 1.64),
  ('V23I', 1.86),
  ('I20H', 2.12),
  ('L2A', 2.12),
  ('Q11E', 1.01),
  ('E15D', 2.08),
  ('V23Y', 2.4),
  ('E9Y', 1.59),
  ('L1Y', 2.35),
  ('K22A', 2.38),
  ('E15N', 1);
